Data provenance is paper PMC9482650.

targetSystem: T1, SHANK1, Q9Y566
T1 sequence (Q9Y566 658-767, limits assumed, looked up): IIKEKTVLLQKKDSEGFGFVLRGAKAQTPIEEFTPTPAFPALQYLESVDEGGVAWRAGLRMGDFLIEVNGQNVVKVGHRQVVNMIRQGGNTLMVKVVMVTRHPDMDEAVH
assayProcedure: holdup assay
Design: key: below the threshold = too weak to quantify, mostly under pKd 3.1 to 4
cond: plain residues with an end cap or a label only (N-terminal biotin on a linker: ado-ado)
measurementKind: pKd

Observe how each entry below is paired with its result.
> print(dat)
                         binder  measurementkind          assayresult
1  NISARRFTLC [FAM167B, Q9BTA0]              pKd  below the threshold
2  GTMFLRETSL [GUCY1A2, P33402]              pKd                 4.33
3    KEKASTETEC [TRPM1, Q7Z4N2]              pKd  below the threshold
4   SKQFDKNAYV [CLDN10, P78369]              pKd  below the threshold
5    PALKNGQYWV [CSPG4, Q6UVK1]              pKd  below the threshold

Inquiry: Given the entry NKSEPFLTWL [WWTR1, Q9GZV5] , report its measured pKd.
Reply text: 5.29

Inquiry: Given the entry PSDSVGKDVF [EGLN1, Q9GZT9] , report its measured pKd.
Reply text: below the threshold

Inquiry: Given the entry DAAHHDESNC [FMNL3, Q8IVF7] , report its measured pKd.
Reply text: below the threshold
